Tested on: HT-29
Assay: Antiproliferative activity against human HT-29 cells after 72 hrs by MTT assay
Format: functional, cell-based
Conditions: HT-29, 72 h
pIC50: −log10 of the molar value.
Observed property: pIC50

Consider the following illustrative entries.
INSERT INTO measurements (compound, observed_property, measurement) VALUES
  ('COc1cc2c(Oc3c(F)cc(NC(=O)NN4C(=O)CCSC4c4c(F)cccc4F)cc3F)ccnc2cc1OCCCN1CCC(C)CC1 (centres undefined)', 'pIC50', 6.39),
  ('COc1cc2c(Oc3c(F)cc(NC(=O)NN4C(=O)CSC4c4c(F)cccc4F)cc3F)ccnc2cc1OCCCN1CCCC1 (centres undefined)', 'pIC50', 6.64);

[a] COc1cc2nccc(Oc3ccc(NC(=O)C4(C(=O)Nc5ccc(F)cc5)CC4)cc3)c2cc1OC [CABOZANTINIB]
[b] CCN1CCN(CCCOc2cc3nccc(Oc4c(F)cc(NC(=O)NN5C(=O)CSC5c5c(F)cccc5F)cc4F)c3cc2OC)CC1 (centres undefined)
Task item: Among a and b , whose measured pIC50 is the smaller figure? Lab note: record the label of whichever item you select.
Reply: a
